# subject_of_test: FGFR1-GST (Homo sapiens, UniProt P11362)
# Construct: GST; made in house
# Sequence (P11362 22-822): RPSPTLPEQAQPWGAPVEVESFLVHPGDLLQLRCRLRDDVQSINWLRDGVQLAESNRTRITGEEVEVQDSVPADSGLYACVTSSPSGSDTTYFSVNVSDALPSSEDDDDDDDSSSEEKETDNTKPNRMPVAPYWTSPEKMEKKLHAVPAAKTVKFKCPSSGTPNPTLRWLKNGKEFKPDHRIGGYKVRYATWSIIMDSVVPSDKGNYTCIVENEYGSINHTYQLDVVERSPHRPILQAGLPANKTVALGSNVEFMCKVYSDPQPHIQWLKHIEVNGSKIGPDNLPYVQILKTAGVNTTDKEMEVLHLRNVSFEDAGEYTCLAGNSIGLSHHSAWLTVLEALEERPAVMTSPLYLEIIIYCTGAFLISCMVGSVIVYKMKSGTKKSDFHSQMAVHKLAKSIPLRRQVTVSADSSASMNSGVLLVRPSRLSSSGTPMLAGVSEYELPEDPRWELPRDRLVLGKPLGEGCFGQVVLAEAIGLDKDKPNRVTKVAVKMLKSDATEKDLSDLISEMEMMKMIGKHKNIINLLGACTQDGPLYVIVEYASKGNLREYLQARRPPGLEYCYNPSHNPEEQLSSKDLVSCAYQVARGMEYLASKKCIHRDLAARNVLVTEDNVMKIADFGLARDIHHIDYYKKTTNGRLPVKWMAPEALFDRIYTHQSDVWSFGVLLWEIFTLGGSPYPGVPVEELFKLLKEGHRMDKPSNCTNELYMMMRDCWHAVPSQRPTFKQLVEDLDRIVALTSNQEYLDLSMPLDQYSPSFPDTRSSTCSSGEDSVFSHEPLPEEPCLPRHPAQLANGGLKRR
# measurement_protocol: FGFR-1 TR-FRET biochemical assay
# condition_set: bounds given in nM
quantity_kind: IC50

Examples from the recorded data:
N#CCc1c(-c2ccc(NC(=O)Nc3cc(C(F)(F)F)ccc3F)cc2)c2c(N)ncnn2c1CN1CCNCC1 [Example 75] :: < 10 nM
CC(=O)c1c(-c2ccc(NC(=O)Nc3cccc(C(F)(F)F)c3)c(F)c2)c2c(N)ncnn2c1CN1CCOCC1 [Example 58] :: < 10 nM
CC(=O)N1CCN(Cc2c(-c3cnco3)c(-c3ccc(NC(=O)Nc4cc(C(F)(F)F)ccc4F)cc3)c3c(N)ncnn23)CC1 [Example 32] :: < 10 nM

# lookup: N#CCc1c(-c2ccc(NC(=O)Nc3cc(C(F)(F)F)ccc3F)cc2)c2c(N)ncnn2c1CN1CCNC(=O)C1 [Example 70] on FGFR1-GST (Homo sapiens, UniProt P11362), IC50 = < 10 nM

Noted IC50 for COCc1c(-c2ccc(NC(=O)Nc3cc(C(F)(F)F)ccc3F)cc2)c2c(N)ncnn2c1C#N [Example 11] , tested on FGFR1-GST (Homo sapiens, UniProt P11362): > 100 nM

Given the molecule COCc1c(-c2ccc(NC(=O)Nc3cc(C(C)(C)C)ccn3)c(F)c2)c2c(N)ncnn2c1CN1CCOCC1 [Example 135] and test system FGFR1-GST (Homo sapiens, UniProt P11362), the measured IC50 is < 10 nM

Record COCc1c(-c2ccc(NC(=O)Nc3cc(C(F)(F)F)ccn3)cc2)c2c(N)ncnn2c1CN1CCC(F)(F)CC1 [Example 40] / FGFR1-GST (Homo sapiens, UniProt P11362), IC50 recorded as > 100 nM
